experiment: Chemical stability (relative purity loss) of peptide compounds in buffer formulations (Table 6); type: physicochemical; conditions: 50 mM phosphate buffer pH 6.5 + acetonitrile (3:1), 2° C. and 37° C., read-out: Chemical stability (relative purity loss), Buffer pH 6.5
Numbered stars: 1 amine (or outer) side, 2 acyl side, 3 side chain; on linkers, the order of the positions; unused ones are H or OH. Bridge positions count the residues as written; N and C are the ends. Square brackets hold non-standard residues; d marks the D form. Peptide text beside a SMILES is read from it. * marks the point of attachment. Lys(Me,(CH2)4NMe(CH2)4CO) = CN(CCCCC(=O)[*:3])CCCCN(C)CCCC[C@H](N[*:1])C(=O)[*:2]; Trp(7-Me) = Cc1cccc2c(C[C@H](N)C(=O)O)c[nH]c12; 2Nal = N[C@@H](Cc1ccc2ccccc2c1)C(=O)O; C12 diacid = O=C(O)CCCCCCCCCCC(=O)*; 3Pal = N[C@@H](Cc1cccnc1)C(=O)O; Thp = NC1(C(=O)O)CCOCC1; Me2NCH2CH2 = CN(C)CC*; Aib = CC(C)(N)C(=O)O; Sar = CNCC(=O)O
quantityKind: degraded at 24 h (%)
Provide only the numeric value, understood in %.

>  <compound>
CC(=O)NCCCC[C@@H]1NC(=O)[C@H](Cc2c[nH]c3c(C)cccc23)NC(=O)CCCCN(C)CCCCN(C)CCCC[C@@H](C(=O)N[C@@H](CC(N)=O)C(=O)N[C@@H](Cc2cccnc2)C(=O)N(C)CC(N)=O)NC(=O)C(C)(C)NC(=O)[C@H](Cc2ccc3ccccc3c2)NC(=O)[C@H](Cc2ccc(OCCN(C)C)cc2)NC(=O)C2(CCOCC2)NC1=O [compound 32] ([Trp(7-Me)]K(Ac)[Thp]Y(Me2NCH2CH2)[2Nal][Aib][Lys(Me,(CH2)4NMe(CH2)4CO)]N[3Pal][Sar]-NH2; lactam N-7)

>  <unitString>
%

>  <resultNumber>
0

$$$$
>  <compound>
Cc1cccc2c(C[C@@H]3NC(=O)CCCCN(C)CCCCN(C)CCCC[C@@H](C(=O)NCC(=O)N[C@@H](Cc4cccnc4)C(=O)N(C)CC(N)=O)NC(=O)C(C)(C)NC(=O)[C@H](Cc4ccc5ccccc5c4)NC(=O)[C@H](Cc4ccc(OCCN(C)C)cc4)NC(=O)C4(CCOCC4)NC(=O)[C@H](CCC(N)=O)NC3=O)c[nH]c12 [compound 28] ([Trp(7-Me)]Q[Thp]Y(Me2NCH2CH2)[2Nal][Aib][Lys(Me,(CH2)4NMe(CH2)4CO)]G[3Pal][Sar]-NH2; lactam N-7)

>  <unitString>
%

>  <resultNumber>
0

$$$$
>  <compound>
Cc1cccc2c(C[C@@H]3NC(=O)CCCCCCCCCCC(=O)NCCCC[C@@H](C(=O)N[C@@H](CC(N)=O)C(=O)N[C@@H](Cc4cccnc4)C(=O)N(C)CC(N)=O)NC(=O)C(C)(C)NC(=O)[C@H](Cc4ccc5ccccc5c4)NC(=O)[C@H](Cc4ccc(OCCN(C)C)cc4)NC(=O)C4(CCOCC4)NC(=O)[C@H](CCC(N)=O)NC3=O)c[nH]c12 [compound 10] ([Trp(7-Me)]Q[Thp]Y(Me2NCH2CH2)[2Nal][Aib]KN[3Pal][Sar]-NH2; linker N-7 via C12 diacid)

>  <unitString>
%

>  <resultNumber>
0

$$$$

Record summary for CC(=O)NCCCC[C@@H]1NC(=O)[C@H](Cc2c[nH]c3c(C)cccc23)NC(=O)CCCCN(C)CCCCN(C)CCCC[C@@H](C(=O)N[C@@H](CO)C(=O)N[C@@H](Cc2cccnc2)C(=O)N(C)CC(N)=O)NC(=O)C(C)(C)NC(=O)[C@H](Cc2ccc3ccccc3c2)NC(=O)[C@H](Cc2ccc(OCCN(C)C)cc2)NC(=O)C2(CCOCC2)NC1=O [compound 39] ([Trp(7-Me)]K(Ac)[Thp]Y(Me2NCH2CH2)[2Nal][Aib][Lys(Me,(CH2)4NMe(CH2)4CO)]S[3Pal][Sar]-NH2; lactam N-7) : reported degraded at 24 h = 0
